The values you see were collected from ChEMBL document CHEMBL3102757.

Assay overview: Cytotoxicity against mouse L929 cells after 96 hrs by Alamar blue assay
Type: cell-based
Binary call on CC50 at 96 h with cut-off 200 µM: strictly below means Met, and equality or higher means Not met.

Compound	Qualitative label
O=C(Cn1ccnc1[N+](=O)[O-])NCc1ccccc1 [BENZNIDAZOLE]	Not met
O=C1/C(=C/c2cccc3cnccc23)CCC/C1=C\c1cccc2cnccc12	Met
O=C1/C(=C/c2cccc3cnccc23)CC/C1=C\c1cccc2cnccc12	Not met
O=C1/C(=C/c2ccc[nH]2)CCC/C1=C\c1ccc[nH]1	Not met
Cc1ccc(/C=C2\CCC/C(=C\c3ccc(C)cc3)C2=O)cc1	Not met
O=C1/C(=C/c2ccnc3ccccc23)CC/C1=C\c1ccnc2ccccc12	Met
O=C1/C(=C/c2ccccc2)CC/C1=C\c1ccccc1	Not met

----------
pIC50 reference
Tested on: Trypanosoma cruzi
Assay overview: Trypanocidal activity against Trypanosoma cruzi Tulahuen amastigotes infected in mouse L929 cells assessed as parasite growth inhibition after 7 days by beta-galactosidase assay
Type: functional, organism-based
Test settings: L929, 168 h
pIC50: −log10 of the molar value.
Parameter: pIC50

O=C1/C(=C/c2cccc3cnccc23)CCC/C1=C\c1cccc2cnccc12 4.16
O=C1/C(=C/c2ccc[nH]2)CC/C1=C\c1ccc[nH]1 < 3.60
Cc1ccc(/C=C2\CC/C(=C\c3ccc(C)cc3)C2=O)cc1 < 3.60
[N-]=[N+]=NCc1ccc(/C=C2\CC/C(=C\c3ccc(CN=[N+]=[N-])cc3)C2=O)cc1 < 3.60
O=C1/C(=C/c2ccccc2)CC/C1=C\c1ccccc1 4.14
O=C1/C(=C/c2cccc3cnccc23)CC/C1=C\c1cccc2cnccc12 4.50
CN(C)c1ccc(/C=C2\CC/C(=C\c3ccc(N(C)C)cc3)C2=O)cc1 < 3.60
O=C1/C(=C/c2ccc(Cn3cc(-c4ccccc4)nn3)cc2)CC/C1=C\c1ccc(Cn2cc(-c3ccccc3)nn2)cc1 < 3.60
O=C1/C(=C/c2ccccc2)CCC/C1=C\c1ccccc1 < 3.60
O=C1/C(=C/c2ccnc3ccccc23)CCC/C1=C\c1ccnc2ccccc12 < 3.60
O=C1/C(=C/c2ccncc2)CCC/C1=C\c1ccncc1 < 3.60
O=C1/C(=C/c2ccc([N+](=O)[O-])cc2)CC/C1=C\c1ccc([N+](=O)[O-])cc1 < 3.60
O=C1/C(=C/c2ccnc3ccccc23)CC/C1=C\c1ccnc2ccccc12 5.15
Cc1ccc(/C=C2\CCC/C(=C\c3ccc(C)cc3)C2=O)cc1 3.64
CN(C)c1ccc(/C=C2\CCC/C(=C\c3ccc(N(C)C)cc3)C2=O)cc1 < 3.60
O=C1/C(=C/c2ccc[nH]2)CCC/C1=C\c1ccc[nH]1 3.60
O=C1/C(=C/c2ccc(Cn3cc(CCO)nn3)cc2)CC/C1=C\c1ccc(Cn2cc(CCO)nn2)cc1 < 3.60
O=C1/C(=C/c2ccncc2)CC/C1=C\c1ccncc1 < 3.60

----------
inhibition reference
Test system: Cruzipain (Trypanosoma cruzi) (UniProt P25779)
Sequence (P25779 123-467 limits assumed): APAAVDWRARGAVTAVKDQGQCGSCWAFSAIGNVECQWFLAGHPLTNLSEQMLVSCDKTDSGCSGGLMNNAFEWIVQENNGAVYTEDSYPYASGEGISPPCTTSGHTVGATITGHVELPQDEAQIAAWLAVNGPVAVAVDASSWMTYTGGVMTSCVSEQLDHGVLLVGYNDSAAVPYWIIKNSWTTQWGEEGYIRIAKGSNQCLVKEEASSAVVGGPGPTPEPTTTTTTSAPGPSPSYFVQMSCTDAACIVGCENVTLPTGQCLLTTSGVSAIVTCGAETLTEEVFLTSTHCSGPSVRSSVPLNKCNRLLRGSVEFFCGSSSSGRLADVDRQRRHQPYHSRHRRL
Assay overview: Inhibition of Trypanosoma cruzi recombinant cruzaine using Z-FR-AMC as substrate at 100 uM preincubated for 10 mins measured for 5 mins by spectrophotometric analysis relative to DMSO-treated control
Parameter: inhibition (%)

O=C1/C(=C/c2ccc([N+](=O)[O-])cc2)CC/C1=C\c1ccc([N+](=O)[O-])cc1 35
O=C1/C(=C/c2ccccc2)CCC/C1=C\c1ccccc1 31
Cc1ccc(/C=C2\CCC/C(=C\c3ccc(C)cc3)C2=O)cc1 32
O=C1/C(=C/c2ccc(Cn3cc(CCO)nn3)cc2)CC/C1=C\c1ccc(Cn2cc(CCO)nn2)cc1 16
O=C1/C(=C/c2cccc3cnccc23)CCC/C1=C\c1cccc2cnccc12 19
O=C1/C(=C/c2ccncc2)CC/C1=C\c1ccncc1 23
O=C1/C(=C/c2ccncc2)CCC/C1=C\c1ccncc1 66
O=C1/C(=C/c2ccnc3ccccc23)CCC/C1=C\c1ccnc2ccccc12 42

----------
Assay overview: Cytotoxicity against mouse peritoneal macrophages after 24 hrs by MTT assay
Type: cell-based, Peritoneal macrophage cell
Recorded CC50 at 24 h determines the label; the label ranges are lo: < 20 µM; med: ≥ 20 µM and < 50 µM; hi: ≥ 50 µM

Compound smiles	Qualitative label
O=C1/C(=C/c2ccc[nH]2)CC/C1=C\c1ccc[nH]1	hi
O=C1/C(=C/c2ccccc2)CC/C1=C\c1ccccc1	hi
O=C1/C(=C/c2ccncc2)CCC/C1=C\c1ccncc1	med
Cc1ccc(/C=C2\CC/C(=C\c3ccc(C)cc3)C2=O)cc1	med
CN(C)c1ccc(/C=C2\CC/C(=C\c3ccc(N(C)C)cc3)C2=O)cc1	lo
O=C1/C(=C/c2cccc3cnccc23)CC/C1=C\c1cccc2cnccc12	med
O=C1/C(=C/c2ccc(Cn3cc(CCO)nn3)cc2)CC/C1=C\c1ccc(Cn2cc(CCO)nn2)cc1	hi
O=C1/C(=C/c2ccnc3ccccc23)CC/C1=C\c1ccnc2ccccc12	lo
